Assay: Elimination half life in Sprague-Dawley rat at 15 mg/kg, po by LC-MS analysis
Assay type: ADME, organism-based
Set-up: dose 15 mg/kg, route oral
Conditions: in vivo, read-out: beta t1/2 (converted)
Reported Metric: half-life (h)
Supply the numeric figure in h, leaving out any unit text.

{"columns": ["Compound", "Display Unit", "Value Observed"],
 "data": [
  ["O=C1OC(COP(=O)([O-])[O-])CN1c1ccc(-c2ccc3c(c2)OC[C@H]2[C@H](CO)OC(=O)N32)cn1.[Na+].[Na+] (stereo partly drawn)", "h", 1.61]
]}

So what's the measured half-life for this one? N=C(N)NCCC[C@H](N)C(=O)O.N=C(N)NCCC[C@H](N)C(=O)O.O=C1OC(COP(=O)(O)O)CN1c1ccc(-c2ccc3c(c2)OC[C@H]2[C@H](CO)OC(=O)N32)cn1 (stereo partly drawn)
1.45

And for CN1C[C@@H](c2ccc(-c3ccc4c(c3)OC[C@H]3[C@H](CO)OC(=O)N43)cn2)OC1=O ?
1.93
